Values were extracted from ChEMBL document CHEMBL6071177.

Assay: Lipophilicity, logD of compound at pH 7.4 by HPLC analysis
Type: physicochemical
Details: buffer
readout: logD

// known answers, use as guide
O=C(C1CCCCC1)N1CC(=O)N2CCc3ccccc3C2C1 (configuration not stated) ... 3
O=C1CCN2C(=O)c3ccccc3C2C(=O)Nc2cc(F)cc(F)c21 (configuration not stated) ... 1.7
O=C1CCn2c(nc3ccccc3c2=O)C(=O)Nc2ccccc21 ... 1.8
O=C1CCN2C(=O)c3cc4ccccc4cc3C2C(=O)Nc2ccccc21 (configuration not stated) ... 2.3
O=C1C[C@@H](CO)N2C(=O)c3ccccc3C2C(=O)Nc2ccccc21 (some centres not stated) ... 0.8
O=C1CCN2C(=O)c3cc(F)c(F)cc3C2C(=O)Nc2ccccc21 (configuration not stated) ... 1.7
O=C1CCN2C(=O)c3c(F)c(F)c(F)c(F)c3C2C(=O)Nc2ccccc21 (configuration not stated) ... 2
CN1C(=O)C2c3ccccc3C(=O)N2CCC(=O)c2ccccc21 (configuration not stated) ... 1.9

A = O=C1CCN2C(=O)c3ccccc3C2C(=O)Nc2ccc(Cl)cc21 (configuration not stated)
B = O=C1c2ccccc2C23C(=O)Nc4ccccc4C2(O)CCN13 (configuration not stated)
Given the two records A and B , choose the one whose logD value is lower. Returns: label corresponding to the selected item.
B
(B: 0.9, A: 1.8)
